assay: HepG2 cytotoxicity, primary screen, cytotoxicity control for P. falciparum antimalarial project, cell-based, ATP luminescence (AID 2303); conditions: HepG2 viability, 24-48 h, at 10 µM, stronger effect = higher value
Entries get a class label from measured inhibition. See ranges: low band = under 10%, middle band = from 10% up to 40%, high band = 40% and over

[
  {
    "compound": "NCc1ccc(CNCc2ccc(-c3ccc(-c4nc5ccc(C(F)(F)F)cc5[nH]4)s3)cc2)cc1",
    "assigned_category": "middle band"
  },
  {
    "compound": "N#CC(NC(=O)C=Cc1ccccc1)c1ccccc1 (stereo not given)",
    "assigned_category": "low band"
  },
  {
    "compound": "CCOC(=O)CN(c1ccc(Br)cc1OCCOc1cc(Br)ccc1N(CC(=O)OCC)C(C)C(=O)OCC)C(C)C(=O)OCC (stereo not given)",
    "assigned_category": "low band"
  },
  {
    "compound": "NC(N)=NC(=O)Nc1cc(Cl)c(Cl)c(C(F)(F)F)c1",
    "assigned_category": "low band"
  },
  {
    "compound": "CCOC(=O)NCC(=O)Nc1cccc(-c2cccc(-c3nc4c(C)cccc4[nH]3)c2)c1",
    "assigned_category": "middle band"
  },
  {
    "compound": "CC1(C)N=C(N)N=C(N)N1c1ccc(Br)cc1",
    "assigned_category": "high band"
  },
  {
    "compound": "CN(C)c1ccnc2ccc(NC(=O)Nc3ccnc4ccccc34)cc12",
    "assigned_category": "middle band"
  },
  {
    "compound": "Fc1cccc2sc(Nc3nc(-c4ccccn4)cs3)nc12",
    "assigned_category": "middle band"
  },
  {
    "compound": "CCOC(=O)N1CCN(CCCNc2c3ccc(Cl)cc3nc3ccc(OC)cc23)CC1",
    "assigned_category": "high band"
  },
  {
    "compound": "CC1(C)N=C(N)N=C(N)N1OCc1cccs1",
    "assigned_category": "high band"
  },
  {
    "compound": "CCCCCN1CCCC(CNS(=O)(=O)c2cccc(C(=O)Nc3ccc(C(F)(F)F)cc3)c2)C1 (stereo not given)",
    "assigned_category": "middle band"
  },
  {
    "compound": "Cc1ccccc1C1CCN(C2CCC(NC(=O)/C=C/c3ccc4c(c3)OC(F)(F)O4)CC2)CC1 (stereo not given)",
    "assigned_category": "high band"
  },
  {
    "compound": "O=C(Nc1cccc(-c2ccc(-c3nc4ccccc4[nH]3)cc2)c1)Nc1ccc(F)c(F)c1F",
    "assigned_category": "high band"
  },
  {
    "compound": "COc1ccc2nccc([C@H](O)CN3CCC(NCc4nc5c(F)cccc5[nH]4)CC3)c2c1",
    "assigned_category": "low band"
  },
  {
    "compound": "CC(C)c1ccc(NC(=O)c2ccc(CN3CCCN(Cc4cccc(Cl)c4)CC3)cc2)cc1",
    "assigned_category": "high band"
  },
  {
    "compound": "CC(C)(C)N1CCC(N(Cc2ccc(-c3ccc(C(F)(F)F)cc3)cc2)C(=O)Cn2c(CCc3cccc(F)c3F)cc(=O)c3ccccc32)CC1",
    "assigned_category": "high band"
  },
  {
    "compound": "COC(=O)[C@@H](NC(=O)[C@@H](Nc1ccc(C#N)c2ccccc12)C(C)(C)C)c1ccc(O)cc1",
    "assigned_category": "low band"
  },
  {
    "compound": "COc1ccc(C(=O)[C@H]2C[C@@H]2CN(C)CC(O)c2cc(C)c(OC)cc2C)cc1 (stereo not given in full)",
    "assigned_category": "low band"
  },
  {
    "compound": "Cc1ccccc1C1CCN(C2CCC(NC(=O)/C=C/c3ccc(F)cc3)CC2)CC1 (stereo not given)",
    "assigned_category": "high band"
  },
  {
    "compound": "COc1cc(C2NCC3(CCOCC3)c3cc4c(cc32)OCCO4)cc(OC)c1OC (stereo not given)",
    "assigned_category": "middle band"
  }
]

Each recorded value in this set is attributed to PubChem BioAssay.
